# Test system: Aa + Ap (Alternaria alternata + Aureobasidium pullulans)
# protocol details: Fungal efficacy testing, modified ASTM 5590 (6-well, mixed inoculum, Example 4)
# Assay type: cell-based
# cond: Aa + Ap; at the Total conc; four weeks
value kind: % inhibition (%)
All answers are understood in %, so give the number only.

- molecule: "CN(C)C(=O)Nc1cccc(C(F)(F)F)c1 [Fluometuron]"
  % inhibition / %: 0
- molecule: "CCCCCCCCn1sccc1=O [OIT, 2-n-octyl-4-isothiazolin-3-one]"
  % inhibition / %: 100
- molecule: "Cc1ccc(S(=O)(=O)C(I)I)cc1 [DIMTS, diiodomethyl-p-tolylsulfone]"
  % inhibition / %: 100
- molecule: "CCCCCCCCn1sc(Cl)c(Cl)c1=O [DCOIT]"
  % inhibition / %: 100

Looking for the measured % inhibition of c1ccc2[nH]c(-c3cscn3)nc2c1 [TBZ, thiabendazole] , can you help?
80

----------
# Test system: Cp + To + Ta (Calotrix parientina, Trentepohlia odorata, Trentepohlia aurea)
# protocol details: Algal efficacy testing, modified ASTM 5589 (6-well, mixed inoculum, Example 4)
# Assay type: cell-based
# cond: Cp + To + Ta mixed inoculum; four weeks; NE = no end point at the concentration tested
Total conc, ppm overview
All answers are understood in ppm, so give the number only.

A selection of reference data follows.
- structure smiles string: "CCCCCCCCn1sc(Cl)c(Cl)c1=O"
  unit string: "ppm"
  Total conc, ppm: 575
- structure smiles string: "c1ccc2[nH]c(-c3cscn3)nc2c1"
  unit string: "ppm"
  Total conc, ppm: 1875
- structure smiles string: "CN(C)C(=O)Nc1cccc(C(F)(F)F)c1"
  unit string: "ppm"
  Total conc, ppm: 1250
- structure smiles string: "Cc1ccc(S(=O)(=O)C(I)I)cc1"
  unit string: "ppm"
  Total conc, ppm: 1875

The record that follows has no Total conc, ppm shown yet.
Looking for the measured Total conc, ppm of `CCCCCCCCn1sccc1=O` , can you help?
1350
